Reference source for all entries: ChEMBL document CHEMBL3639008

Target: Mitogen-activated protein kinase 1 (Homo sapiens, UniProt P28482)
Sequence (P28482 whole entry, the tested form may be a part): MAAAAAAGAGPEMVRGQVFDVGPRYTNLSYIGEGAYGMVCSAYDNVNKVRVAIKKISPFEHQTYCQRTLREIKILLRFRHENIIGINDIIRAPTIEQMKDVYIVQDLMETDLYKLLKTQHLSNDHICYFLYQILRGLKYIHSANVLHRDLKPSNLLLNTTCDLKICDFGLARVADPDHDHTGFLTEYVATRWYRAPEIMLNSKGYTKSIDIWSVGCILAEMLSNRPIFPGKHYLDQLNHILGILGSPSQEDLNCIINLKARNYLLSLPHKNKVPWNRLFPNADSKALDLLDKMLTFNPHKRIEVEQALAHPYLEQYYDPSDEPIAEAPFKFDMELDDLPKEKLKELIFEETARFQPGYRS
Assay: Cell-Free Kinase Assays: The inhibitory effect of the compounds according to the invention was tested on various serine/threonine, tyrosine and lipid kinases in enzymatic assays. Recombinant human kinases such as, for example, Erk2, were used in this case, partly as full-length kinases, partly as shortened fragments, but at least consisting of the functional kinase domains. The commercial kinase proteins (Proqinase, Upstate) were used as recombinant fusion proteins with GST (glutathion-S-transferase) or His-Tag. Depending on the type of substrate, the various kinase reactions were quantified by means of suitable ALPHA beads (Perkin-Elmer). MAPK-ALPHAs (e.g. Erk2): the test substance, 0.625 ng Erk2 (#14-173, Upstate), 10 uM ATP and 15 nM biotinylated MBP (myelin basic protein) substrate were incubated on a 384-well Optiplate (Perkin-Elmer) in a volume of 15 ul for 1 h in 25 mM Tris, 10 mM MgCl2, 0.1% Tween-20, 100 uM NaVO4, 2 mM DTT at pH 7.5.

Query smiles: O=C(NCCCCc1ccccc1)Nc1ccc2ncc(-c3cnn(CC(F)F)c3)nc2n1
IC50: 2 nM
